Molecular target: Electric eel acetylcholinesterase (AChE, EC 3.1.1.7) (Electrophorus electricus, UniProt O42275)
Construct: purchased Sigma-Aldrich (St. Louis, MO, USA)
Sequence (O42275 24-633): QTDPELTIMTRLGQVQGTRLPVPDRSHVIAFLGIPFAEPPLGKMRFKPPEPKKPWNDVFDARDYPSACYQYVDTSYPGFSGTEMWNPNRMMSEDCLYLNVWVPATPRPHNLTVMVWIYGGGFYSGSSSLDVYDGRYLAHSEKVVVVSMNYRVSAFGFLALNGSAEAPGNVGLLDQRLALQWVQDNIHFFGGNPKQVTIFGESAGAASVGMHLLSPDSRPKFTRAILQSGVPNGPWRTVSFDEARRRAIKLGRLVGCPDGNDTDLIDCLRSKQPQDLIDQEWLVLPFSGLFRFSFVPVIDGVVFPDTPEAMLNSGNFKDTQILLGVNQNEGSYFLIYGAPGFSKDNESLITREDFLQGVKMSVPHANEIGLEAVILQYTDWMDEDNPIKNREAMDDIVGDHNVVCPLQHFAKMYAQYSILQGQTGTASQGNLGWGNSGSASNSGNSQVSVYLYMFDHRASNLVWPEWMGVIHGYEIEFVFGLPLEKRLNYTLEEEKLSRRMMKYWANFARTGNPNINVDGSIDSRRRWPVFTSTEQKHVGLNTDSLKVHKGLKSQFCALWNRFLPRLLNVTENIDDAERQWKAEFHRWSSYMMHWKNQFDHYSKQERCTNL
Experiment: biochemical
Format: biochemical
Details: 2a, 2r: up to a concentration of 1000 µM
measurement-label: AChE inhibition effect (in words)

# annotated cases, reported AChE inhibition effect (in words) shown
Requested field: AChE inhibition effect (in words). Item: Nc1ccc(C(=O)OCC(=O)C23CC4CC(CC(C4)C2)C3)cc1
inactive

Which measured AChE inhibition effect (in words) value corresponds to O=C(OCC(=O)C12CC3CC(CC(C3)C1)C2)c1ccccn1 [Compound 2r, 2-(Adamantan-1-yl)-2-oxoethyl picolinate] ?
low inhibition effects

What does the data say about its AChE inhibition effect (in words)? Entry: Nc1cccc(C(=O)OCC(=O)C23CC4CC(CC(C4)C2)C3)c1
inactive

Reported AChE inhibition effect (in words), compound O=C(OCC(=O)C12CC3CC(CC(C3)C1)C2)c1ccccc1 [Compound 2a, 2-(Adamantan-1-yl)-2-oxoethyl benzoate] : ____
low inhibition effects

Next:
Which AChE inhibition effect (in words) value belongs to Nc1ccccc1C(=O)OCC(=O)C12CC3CC(CC(C3)C1)C2 ?
inactive
